Molecular target: UniProt Q13547
Sequence (Q13547 whole entry): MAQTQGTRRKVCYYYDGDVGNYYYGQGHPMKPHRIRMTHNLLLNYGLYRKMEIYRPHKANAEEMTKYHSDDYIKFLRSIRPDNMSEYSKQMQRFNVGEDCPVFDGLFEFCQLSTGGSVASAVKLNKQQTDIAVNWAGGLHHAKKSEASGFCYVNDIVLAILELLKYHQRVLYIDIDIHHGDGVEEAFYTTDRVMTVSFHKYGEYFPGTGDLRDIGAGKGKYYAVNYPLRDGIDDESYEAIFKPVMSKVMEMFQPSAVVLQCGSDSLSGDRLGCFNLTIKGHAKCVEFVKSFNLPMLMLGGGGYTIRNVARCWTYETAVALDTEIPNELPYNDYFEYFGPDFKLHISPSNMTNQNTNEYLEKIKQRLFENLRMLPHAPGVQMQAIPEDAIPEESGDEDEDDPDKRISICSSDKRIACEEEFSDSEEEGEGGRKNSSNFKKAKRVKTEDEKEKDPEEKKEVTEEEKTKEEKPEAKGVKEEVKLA
Experiment: Inhibition of full length His-tagged human recombinant HDAC1 expressed in baculovirus system using fluor de Lys as substrate by fluorometric analysis
// returns NOT MET unless IC50 is strictly below 0.5 µM, in which case MET

molecule	qualitative.label
CN1C(=O)C(N)N=C(c2ccccc2)c2cc(C#CCCCC(=O)NO)ccc21 (racemic)	NOT MET
CN1C(=O)CN=C(c2ccccc2)c2cc(C#CCCCCC(=O)NO)ccc21	NOT MET
O=C(CCCCCCC(=O)N1CCN=C(c2ccccc2)c2ccccc21)NO	MET
CN1C(=O)CN=C(c2ccccc2)c2cc(C#C/C=C/C(=O)NO)ccc21	MET
CN1C(=O)C(NC(=O)CCCCC(=O)NO)N=C(c2ccccc2)c2ccccc21 (racemic)	MET
CN1C(=O)[C@@H](NC(=O)CCCCCCC(=O)NO)N=C(c2ccccc2)c2ccccc21	NOT MET
CN1C(=O)[C@H](NC(=O)CCCCCCC(=O)NO)N=C(c2ccccc2)c2ccccc21	NOT MET
CN1C(=O)C(NC(=O)CCCCCC(=O)NO)N=C(c2ccccc2)c2ccccc21 (racemic)	MET
CN1C(=O)C(NC(=O)CCCCCCCC(=O)NO)N=C(c2ccccc2)c2ccccc21 (racemic)	MET
CN1C(=O)CN=C(c2ccccc2)c2cc(C#CCCC(=O)NO)ccc21	NOT MET

* * *

Target: Histone deacetylase
Experiment: Inhibition of HDAC in human HeLa cell extract using fluor de Lys as substrate after 15 mins by fluorometric analysis
Assay type: protein assay
Listing: IC50 of selected compounds

compound	unit.label	IC50
C[C@@H]1N=C(c2ccccc2)c2cc(C#CCCCC(=O)NO)ccc2NC1=O	nM	340
CN1C(=O)CN=C(c2ccccc2)c2cc(C#C/C=C/C(=O)NO)ccc21	nM	160
CN1C(=O)C(NC(=O)CCCCCC(=O)NO)N=C(c2ccccc2)c2ccccc21 (racemic)	nM	320
CN1C(=O)C(NC(=O)CCCCCCCC(=O)NO)N=C(c2ccccc2)c2ccccc21 (racemic)	nM	600
CN1C(=O)[C@H](NC(=O)CCCCCCC(=O)NO)N=C(c2ccccc2)c2ccccc21	nM	310
O=C(CCCCCCC(=O)N1CCN=C(c2ccccc2)c2ccccc21)NO	nM	180
CN1C(=O)C(NC(=O)CCCCC(=O)NO)N=C(c2ccccc2)c2ccccc21 (racemic)	nM	380
CN1C(=O)[C@@H](NC(=O)CCCCCCC(=O)NO)N=C(c2ccccc2)c2ccccc21	nM	120

* * *

Tested on: HCT-116
Assay: Antiproliferative activity against human HCT116 cells after 72 hrs by CellTiter-Glo assay
Format: functional, cell-based
Conditions: HCT-116, 72 h
assay.metric: log10(IC50) (log10 of the value in µM)

compound	measured.on	log10(IC50)
CN1C(=O)CN=C(c2ccccc2)c2cc(C#CCCC(=O)NO)ccc21	HCT-116	0.82
CN1C(=O)CN=C(c2ccccc2)c2cc(C#CCCCCC(=O)NO)ccc21	HCT-116	0.27
CN1C(=O)CN=C(c2ccccc2)c2cc(C#CCCCC(=O)NO)ccc21	HCT-116	0.42
CN1C(=O)C(NC(=O)CCCCC(=O)NO)N=C(c2ccccc2)c2ccccc21 (racemic)	HCT-116	0.30
CN1C(=O)C(NC(=O)CCCCCCCC(=O)NO)N=C(c2ccccc2)c2ccccc21 (racemic)	HCT-116	0.59
CN1C(=O)[C@H](NC(=O)CCCCCCC(=O)NO)N=C(c2ccccc2)c2ccccc21	HCT-116	0.03
CN1C(=O)C(NC(=O)CCCCCC(=O)NO)N=C(c2ccccc2)c2ccccc21 (racemic)	HCT-116	0.16
CN1C(=O)CN=C(c2ccccc2)c2cc(C#C/C=C/C(=O)NO)ccc21	HCT-116	-0.34
CN1C(=O)[C@@H](NC(=O)CCCCCCC(=O)NO)N=C(c2ccccc2)c2ccccc21	HCT-116	-0.33
C[C@@H]1N=C(c2ccccc2)c2cc(C#CCCCC(=O)NO)ccc2NC1=O	HCT-116	-0.01
O=C(CCCCCCC(=O)N1CCN=C(c2ccccc2)c2ccccc21)NO	HCT-116	0.16

Data credit: ChEMBL document CHEMBL2406989
